tested on: Staphylococcus sp.; test: in vitro antibacterial evaluation, MIC by broth dilution; assay type: cell-based; settings: broth dilution, 18 hours at 35° C.
experimental-readout: MIC Staphylococcus aureus (GC 3051)

>>> result("CC(c1ccccc1)C1NC(=O)CNC(=O)C(CO)NC(=O)C(C(O)C2CNC(=N)N2C2OC(CO)C(O)C(O)C2O)NC(=O)C(C(O)C2CNC(=N)N2)NC(=O)C(Cc2ccc(OC3OC(CO)C(OC4OC5COC(Cc6ccc(Cl)cc6)OC5C(O)C4O)C(O)C3O)cc2)NC1=O (stereo not shown)")
"<0.5 µg/mL"
>>> result("Cc1cccc(C2OCC3OC(OC4C(CO)OC(Oc5ccc(CC6NC(=O)C(C(C)c7ccccc7)NC(=O)CNC(=O)C(CO)NC(=O)C(C(O)C7CNC(=N)N7C7OC(CO)C(O)C(O)C7O)NC(=O)C(C(O)C7CNC(=N)N7)NC6=O)cc5)C(O)C4O)C(O)C(O)C3O2)c1 (stereo not shown)")
"1 µg/mL"
>>> result("CC(c1ccccc1)C1NC(=O)CNC(=O)C(CO)NC(=O)C(C(O)C2CNC(=N)N2C2OC(CO)C(O)C(O)C2O)NC(=O)C(C(O)C2CNC(=N)N2)NC(=O)C(Cc2ccc(OC3OC(CO)C(OC4OC(CO)C(O)C(OCc5ccc(OCc6ccccc6)cc5)C4O)C(O)C3O)cc2)NC1=O (stereo not shown) [Example 231c]")
"2 µg/mL"
>>> result("CC(C)CC(=O)OCC1OC(OC2C(CO)OC(Oc3ccc(CC4NC(=O)C(Cc5ccccc5)NC(=O)CNC(=O)C(CO)NC(=O)C(C(O)C5CNC(=N)N5C5OC(CO)C(O)C(O)C5O)NC(=O)C(C(O)C5CNC(=N)N5)NC4=O)cc3)C(O)C2O)C(O)C(O)C1O (stereo not shown) [Example 283c]")
"32 µg/mL"
>>> result("CC(c1ccccc1)C1NC(=O)CNC(=O)C(CO)NC(=O)C(C(O)C2CNC(=N)N2C2OC(CO)C(O)C(O)C2O)NC(=O)C(C(O)C2CNC(=N)N2)NC(=O)C(Cc2ccc(OC3OC(CO)C(OC4OC(CO)C(OCc5ccc(OCc6ccccc6)cc5)C(O)C4O)C(O)C3O)cc2)NC1=O (stereo not shown) [Example 231a]")
"1 µg/mL"
>>> result("CC(c1ccccc1)C1NC(=O)CNC(=O)C(CO)NC(=O)C(C(O)C2CNC(=N)N2C2OC(CO)C(O)C(O)C2O)NC(=O)C(C(O)C2CNC(=N)N2)NC(=O)C(Cc2ccc(OC3OC(CO)C(OC4OC5COC6(OC5C(O)C4O)C4CC5CC(C4)CC6C5)C(O)C3O)cc2)NC1=O (stereo not shown)")
"0.5 to 1 µg/mL"
>>> result("CC(c1ccccc1)C1NC(=O)CNC(=O)C(CO)NC(=O)C(C(O)C2CNC(=N)N2C2OC(CO)C(O)C(O)C2O)NC(=O)C(C(O)C2CNC(=N)N2)NC(=O)C(Cc2ccc(OC3OC(CO)C(OC4OC(CO)C(OCC=Cc5ccc(N(C)C)cc5)C(O)C4O)C(O)C3O)cc2)NC1=O (stereo not shown) [Example 243a]")
"32 µg/mL"
>>> result("CC(c1ccccc1)C1NC(=O)CNC(=O)C(CO)NC(=O)C(C(O)C2CNC(=N)N2C2OC(CO)C(O)C(O)C2O)NC(=O)C(C(O)C2CNC(=N)N2)NC(=O)C(Cc2ccc(OC3OC(CO)C(OC4OC5COC(Cc6ccc(Br)cc6)OC5C(O)C4O)C(O)C3O)cc2)NC1=O (stereo not shown)")
"<0.5 to 1 µg/mL"
>>> result("CC(c1ccccc1)C1NC(=O)CNC(=O)C(CO)NC(=O)C(C(O)C2CNC(=N)N2C2OC(CO)C(O)C(O)C2O)NC(=O)C(C(O)C2CNC(=N)N2)NC(=O)C(Cc2ccc(OC3OC(CO)C(OC4OC5COC(CC6CCCCC6)OC5C(O)C4O)C(O)C3O)cc2)NC1=O (stereo not shown)")
"2 µg/mL"
>>> result("COc1ccc2cc(COCC3OC(OC4C(CO)OC(Oc5ccc(CC6NC(=O)C(C(C)c7ccccc7)NC(=O)CNC(=O)C(CO)NC(=O)C(C(O)C7CNC(=N)N7C7OC(CO)C(O)C(O)C7O)NC(=O)C(C(O)C7CNC(=N)N7)NC6=O)cc5)C(O)C4O)C(O)C(O)C3O)ccc2c1 (stereo not shown)")
"2 µg/mL"
